Source: the nanobody polyreactivity screen of Harvey et al. (2022)

- measurementProtocol: yeast display, Sf9 membrane polyspecificity reagent, FACS + sequencing; frameworks hold sequencing errors
valueKind: polyreactivity (PSR sort gate)

QVQLVESGGCLVQAGGSLRLSCAASGSIFRYYAKGWYRQAPGKERELVAAIRVSTGSTSYADSVKGRFTISRDTAKNTVYLQMNSLKPEDTAFYYCNARSRQVIAYRQHNYWGQGTQVTVSS    high polyreactivity
QVQLVESGGGLVQAGGSLRLSCAASGRIFTGNVMGWYRQAPGKERELVAAISRRGGGTYYADSVKGRFTISRDNAKNTVYLQMNSLKPEDTAVYYCAAQYRSQGQPKGGVLYYYWGQGTQVTVSS    high polyreactivity
QVQLQESGGGLVQAGGSLRLSCAASGYISQSSVMGWYRQAPGKERDFVASISYGATTYYADSVKGRFTISRDNAKNTVYLQTNSPKPEDTAVYYCAVGVKRGFSHRYWGQGTQVTVSS    high polyreactivity

---

- measurementProtocol: yeast display, Sf9 membrane polyspecificity reagent, FACS + sequencing; frameworks hold sequencing errors
valueKind: polyreactivity (PSR sort gate)

Answered examples (4):
QVQLVESGGGLVQAGGSLRLSCAASGRNFYVYTMGWYRQAPGKERELVAAISWSGGSTHHADSVKGRFTISRDNAKNTVYLQMNSLKPEDTAVYYCNKGVVSRVAFEYWGQGTQVTVSS    low polyreactivity
QVQLVESGGGLVQAGGSLRLSCAASGLIVVHYAMGWYSQAPGKVREFVAAITWSGGSTYYADSVKGRFTISRDNAKNTVYLQMNSLKPEDTAVYYCAVDGFRPGTASFGYWGQGTQVTVSS    low polyreactivity
QVQLVESGGGLVQAGGSLRLSCAAYGRTIFFNAMGWYIQAPGKERELVAAISRGGSRTFYADSVKGRFTISRDNAKNTVYFQMNSLKPEDPAVYYCNAVAQSGRYDYWGQGTQVTVPS    high polyreactivity
QVQLVESGGGLVQAGGSLRLSCAASGRIFKVYAMGWSRQAPGKERELVAAITSGGSTNYADSVKGRFTISRDNAKTTVYLQMNSRKPEDTAVYYCAVVSGRWSAVQYDYWGQGTQVTVSS    high polyreactivity

Looking for the measured polyreactivity (PSR sort gate) of QVQLVESGGGLVQAGGSLRLSCAASGSIFGLYTMGWYRQAPGKERELVAAIDSGDSTNYADSVKGRFTISRDNEKNTVYLQMNSLKQEDTAVYYCNALGEYPYYSSFWYESWGQGTQVTVSS , can you help?
low polyreactivity

---

- measurementProtocol: yeast display, Sf9 membrane polyspecificity reagent, FACS + sequencing; frameworks hold sequencing errors
valueKind: polyreactivity (PSR sort gate)

QVQLVESGGGLVQEGGSLRLSCAASGRTFDSYTMGWYRPAPGKQRELVADITFTGGSTYYADTVKGRFTISRDNAKYIVFLQMNSLKPEDTAVYYCNADREYKWYFRYDYWGQGTQVNVSS    low polyreactivity
QVQLVESGGGLVQAGGSLRLSCAASGFTFGYYAMGWYRQAPGKEREVVAAIRGGGRTNYADSVKGRFTISRDNAKITVYLQMNSLKPEDTAVYYCNADRLRTLRGDDWGQGSQVTVSS    low polyreactivity

---

- measurementProtocol: yeast display, Sf9 membrane polyspecificity reagent, FACS + sequencing; frameworks hold sequencing errors
valueKind: polyreactivity (PSR sort gate)

Answered examples (4):
QVQLVESGGGLVQAGGSLRLSCAASGSTFIAYAMGWYRQAPGKESELVAAITSGDGTYYADSVKGRFTISRDNAKNTVYLQMNSLKPEDTAVYYCAVGYYWNEPLYWYGDFDYWGQGTQVTVSS    high polyreactivity
QFQLVESGGGLVQAGGSLRLSCAASGRIFKPNAMGWYRQAPGKERELVAAIRYSTGRTYYADSVKGRFTISRDNAKNTVYLQMNSLKPEDTAVYYCAARRVEYYGSQNGYWGQGTQVTVSS    high polyreactivity
QVQLVESGGGLVQAGGSLSLSCAASGRIFATNAMGWYRQAPGKERELVATITRSDGRTYYAVSVKGRFTISRDNAMNSVYLEMNSLKPEDTAVYFCAAYYSDTEPGYREYDYWGQGTQVTLSS    low polyreactivity
QVQLVESGGGLVQAGGSLRISCAASGRTFFHYAMGWYRQAPGKERELVAGITSGGRTKYADSVKGRFTISRDNAKKTVYLQKNSMKPEDTAVYVCAASYIVWLTRGSPRKLFDYWGQGSQVTVSS    high polyreactivity

Next item in the queue.
Looking for the measured polyreactivity (PSR sort gate) of QVQLVESGGGLVQAGGSLRLSCAASGRSFGLYVMGWYRQAPGKERELVAAITGVGSTKYADSVKGRFTISRDNAKNTVYLQMNSLKPEDTEVYYCAKRYLYDRRHAEYWAANDYWGQGTQVTVSS , can you help?
low polyreactivity

---

- measurementProtocol: yeast display, Sf9 membrane polyspecificity reagent, FACS + sequencing; frameworks hold sequencing errors
valueKind: polyreactivity (PSR sort gate)

Answered examples (5):
QVQLVESGGGLVQAGGSLRLSCAASGYTFSDNAMGWYRQAPGKERELVAAITSGVSTYYADSVKGRFTISRDNAKNTVYLQMNSQKPEDTAVYYCAKEVAVFADLYQGAPYGYWGQGTQVTVSS    low polyreactivity
QVQLVESGGGLVQAGGSLRLSCAASGIIFASNAMGWYIQAPGKERELVATINWTDSTTYYADSVKGRFTISRDNAKNNVYLLMNSLKPEDTAGYYCNAVPHWFYRYGRYDYWGQGTQVTVSS    low polyreactivity
QLQLVESGGGLVQAGGSLRLSCAASGRIFVRYAMGWYRQAPGKERELVAAISGRGTSTYYADSVKGRFTISRDNAKNTVYLQMNSLKPEDTAVYDCNTFSQPKWGTSDYDYWGQGTQVTVSS    high polyreactivity
QVQLVESGGGLVQAGGSLRLSCAAYGFTFYLNAMGWYRPAPGKERELVAAISYSDGSTYYADSVKGRFTISRDNAKNTVYLQMTSLKPEDTAVYYCAADTTDPGGAYQLMDYWGQGTQVSVSS    low polyreactivity
QVQLVESGGGLVQAGGSLRLSCAASGRIFTQYTMGCYRQAPGKERELVAAINYSGGRTNYADSVKGRFTISRDNAKNTVYLQMNSLKPEDTAVYYCAAGYRRATYGYWGQGTQVTVSS    high polyreactivity

Looking for the measured polyreactivity (PSR sort gate) of QVQRVDSGGGLVQAGGSLRLSCDPSGRTHDVNAMGWYRQAPWKERQLVAAISYSGGITYYADSVKGRFTISRDNAKNTVYLQMNSLKPEDTAVYYCAVVGGYPSYTVDYWGQGSQVTVSS , can you help?
low polyreactivity

Likewise for QVQLVESGGGLVQAGGSLRLTCAASGSTFLFYARGWYRQAPGKERELVAAIRGRGGSTYYADSVKGRFTISRDNAKNTVYLQMNSLKPEDTAVYYCAALSRFPVNRYSDLDLYYWGEGTQVTVSS ?
high polyreactivity

---

- measurementProtocol: yeast display, Sf9 membrane polyspecificity reagent, FACS + sequencing; frameworks hold sequencing errors
valueKind: polyreactivity (PSR sort gate)

Answered examples (10):
QVQLVESGGGLVQAGGSLRLSCAASGITFPYYAKGWYRQAPGKERELVAGISRSGGRTYYADSVKGRFTISRDNAKNTVYLQMNSLKPEDTAVYYCNARKNLLSVTFDYWGQGTQVTVSS    high polyreactivity
QVQLVESGGGLVQAGGSLRLSCAASGSTIRSYAMGWYRQAPGKERELVAVISSGDSTYYADSVKGRFTISRDNAKNTVYLQMNSLKPEDTAVYYCAADSYVLGRWYGYWGQGTQVTVSS    low polyreactivity
QVQLVESGGRLVQAGGSLRLSCAPSGRTFRWYAMGWYRQSPGKERELVAAISRSGGSTYYADSVKGRFTISRDNAKYTVFLQMNILKPEDTAVYYCANVRYDFKLDYWGQGTQVTVSS    high polyreactivity
QVQLVESGGGLVQAGGSLRLSCAASGSIVRYSVGWYRQAPGKERELVAAISIGGTTYYADSVKGRFTISRDNAKNTVYLPMNSLKPEDTAVYYCNVRRRTWHYITSMDYWGQGTQVNVSS    high polyreactivity
QVQLVESAGGLVQAGGSLRLSCDASVSTFGYYAMGWYRQAPGKERELVAVIRRGGSTNYADSVKGRFTISRDNAKNTVYLQMNSLKPEDTAVYYCAKSQRGTVYSYYYWGQGNQVTVSS    high polyreactivity
QVQLVESGGGLVQAGGSLRLSCAASGSNFTANAMGWYRQAPGKERELVAAISRSGGRTYYADSVKGRFTISRDNAKNTVYLQMNSLKPEDTAVYYCNVGRFNTSGYDYWGQGTQVTVSS    high polyreactivity
QVQLVESGRGLVQAGGSLRLSCAASGFIFLKFAKGWYRQAPGKERELVARITSTGGSTYYADSVKGRFTISRDNAKNTVYLQMNSLKPEDTAVYYCARDTVPSSDPWYYAWGGFEFDYWGQGTQVTVSS    low polyreactivity
QVQLVESGGGLVHAGGSLRLSCAASGITFYEYTMGWYRQAPGKERELVADIDFSGDSTYYSDSVKGRFTISRDYAKNTVYLQMNSLKPEDTAVYYCAVEIIYWWYIYEYWGQGSQVTVSS    high polyreactivity
QVQLVESGGGLVQAGGSLRLSCAASGFTFWGNAMGWYRQAPGKEREMVAAITDTGSTNYADSVKGRCTISRDNAKNTVYLQMNSLKPEDTAVYYCAKDKAYYDWGQTNGYWGQGTQVTVSS    low polyreactivity
QVQLVESGGGLVEAGGSLRLSCAASGRIFWGNAMGWYRPAPGKERELVAAITRGGSTNYADSVKGRFTISRDNAKNTVYLQMKSLKPEDTAVYYCAARTRSRGNSWTYDYWGQGTQVTVSS    high polyreactivity

Next item in the queue.
Looking for the measured polyreactivity (PSR sort gate) of QVQLVESGGGLVQAGGSLRLSCAASGRISTYTMGWYRQAPGKERELVATISTDASTNYADSVKGRFTISRDNAKNTVYLQINSLKPEDTAVYYCAAVIVNQYYDYWGQGTQVTVSS , can you help?
low polyreactivity
